TEST DETAILS: Probe fluorescence ratio response to arachidonic acid relative to ADIFAB2
Type: binding
STATED CONDITIONS: arachidonic acid; response relative to ADIFAB2
The label is true (1) for DR/DR AA below 0.7 and false (0) for DR/DR AA equal to or exceeding 0.7.

Reference set, count: 3
>  <MOLECULE>
72T 73Q 74S (protein, listed as Rattus norvegicus, PEPTIDE (1)...(131) wild-type rat intestinal fatty acid binding protein) AFDGTWKVDRNENYEKFMEKMGINVVKRKLGAHDNLKLTITQEGNKFTVKESSNFRNIDVVFELGVDFAYSTQSGTELTGTWTMEGNKLVGKFKRVDNGKELIAVREISGNELIQTYTYEGVEAKRIFKKE

>  <ASSIGNED CLASS>
false (0)

$$$$
>  <MOLECULE>
18I 31Y 73V 72A (protein, listed as Rattus norvegicus, PEPTIDE (1)...(131) wild-type rat intestinal fatty acid binding protein) AFDGTWKVDRNENYEKFIEKMGINVVKRKLYAHDNLKLTITQEGNKFTVKESSNFRNIDVVFELGVDFAYSAVDGTELTGTWTMEGNKLVGKFKRVDNGKELIAVREISGNELIQTYTYEGVEAKRIFKKE

>  <ASSIGNED CLASS>
false (0)

$$$$
>  <MOLECULE>
126F, 72A (protein, listed as Rattus norvegicus, PEPTIDE (1)...(131) wild-type rat intestinal fatty acid binding protein) AFDGTWKVDRNENYEKFMEKMGINVVKRKLGAHDNLKLTITQEGNKFTVKESSNFRNIDVVFELGVDFAYSAADGTELTGTWTMEGNKLVGKFKRVDNGKELIAVREISGNELIQTYTYEGVEAKFIFKKE

>  <ASSIGNED CLASS>
true (1)

$$$$

Enquiry: Strictly below 0.7: is that where DR/DR AA of 126I, 72A (protein, listed as Rattus norvegicus, PEPTIDE (1)...(131) wild-type rat intestinal fatty acid binding protein) AFDGTWKVDRNENYEKFMEKMGINVVKRKLGAHDNLKLTITQEGNKFTVKESSNFRNIDVVFELGVDFAYSAADGTELTGTWTMEGNKLVGKFKRVDNGKELIAVREISGNELIQTYTYEGVEAKIIFKKE sits?
Return: true (1)

Enquiry: Strictly below 0.7: is that where DR/DR AA of 17K 72A (protein, listed as Rattus norvegicus, PEPTIDE (1)...(131) wild-type rat intestinal fatty acid binding protein) AFDGTWKVDRNENYEKKMEKMGINVVKRKLGAHDNLKLTITQEGNKFTVKESSNFRNIDVVFELGVDFAYSAADGTELTGTWTMEGNKLVGKFKRVDNGKELIAVREISGNELIQTYTYEGVEAKRIFKKE sits?
Return: true (1)

Enquiry: Strictly below 0.7: is that where DR/DR AA of 14P, 72A (protein, listed as Rattus norvegicus, PEPTIDE (1)...(131) wild-type rat intestinal fatty acid binding protein) AFDGTWKVDRNENPEKFMEKMGINVVKRKLGAHDNLKLTITQEGNKFTVKESSNFRNIDVVFELGVDFAYSAADGTELTGTWTMEGNKLVGKFKRVDNGKELIAVREISGNELIQTYTYEGVEAKRIFKKE sits?
Return: true (1)
